System: EKVX NSCLC
Test: NCI tumour cell line growth inhibition, 48 h
parameter: TGI

>  <compound>
COc1ccc(/C=C(/C(=O)n2cnnn2)c2cc(OC)c(OC)c(OC)c2)cc1

>  <parameter>
TGI

>  <recordedValue>
> 100 µM

$$$$
>  <compound>
OC(c1cc(-c2ccccc2)nc2c1ccc1ccccc12)C1CCCCN1 (configuration not stated)

>  <parameter>
TGI

>  <recordedValue>
5.4 µM

$$$$
>  <compound>
Cc1cn([C@H]2[C@@H](CO)C[C@H]2O)c(=O)[nH]c1=O

>  <parameter>
TGI

>  <recordedValue>
> 100 µM

$$$$
>  <compound>
COC(=O)n1c(C[P+](c2ccccc2)(c2ccccc2)c2ccccc2)cc2ccccc21

>  <parameter>
TGI

>  <recordedValue>
11.1 µM

$$$$
>  <compound>
O=S(=O)(O)C1CCC(O)C2[N-]CCCC21.O=S(=O)(O)C1CCC(O)C2[N-]CCCC21.[Zn+2] (configuration not stated)

>  <parameter>
TGI

>  <recordedValue>
> 100 µM

$$$$
>  <compound>
CCOc1ccc(-c2oc(/C=N/NS(=O)(=O)c3ccc(C)cc3)c([N+](=O)[O-])c2-c2ccc(OCC)cc2)cc1

>  <parameter>
TGI

>  <recordedValue>
80 µM

$$$$
>  <compound>
COc1ccc(C2=C(OC(=O)N(C)C)c3cccn3-c3cc(Cl)ccc3S2)cc1

>  <parameter>
TGI

>  <recordedValue>
> 10 µM

$$$$
>  <compound>
CN(C)CCCC1(c2ccc(F)cc2)OCc2cc(-c3cncc4ccccc34)ccc21 (configuration not stated)

>  <parameter>
TGI

>  <recordedValue>
21.2 µM

$$$$
>  <compound>
CNc1ccc(Cl)cc1S(=O)(=O)c1ccccc1[N+](=O)[O-]

>  <parameter>
TGI

>  <recordedValue>
> 100 µM

$$$$
>  <compound>
O=S1(=O)CCN(c2ccccc2CC(c2c[nH]c3ccccc23)c2c[nH]c3ccccc23)CC1

>  <parameter>
TGI

>  <recordedValue>
55.7 µM

$$$$
>  <compound>
Cc1cc(NC(=O)NC(=O)c2ccccc2N(C)C)ccc1Oc1ncc(Br)cn1

>  <parameter>
TGI

>  <recordedValue>
> 68.1 µM

$$$$
>  <compound>
COc1ccc2[nH]c3c(=O)[nH]ncc3c2c1

>  <parameter>
TGI

>  <recordedValue>
> 100 µM

$$$$
>  <compound>
Cc1ccc(-n2c3c(c4c(CN5CCOCC5)c(O)ccc42)CCc2ccccc2C3=O)cc1

>  <parameter>
TGI

>  <recordedValue>
> 100 µM

$$$$
>  <compound>
COc1ccc(-c2c3ccccc3c(-c3ccc(OCCCCCBr)cc3)c3ccccc23)cc1

>  <parameter>
TGI

>  <recordedValue>
> 100 µM

$$$$
>  <compound>
O=C1CC2(CCNCC2)C(=O)N1N1CCOCC1

>  <parameter>
TGI

>  <recordedValue>
> 100 µM

$$$$
>  <compound>
O=C1CSC2(CC(/C=C/c3ccccc3Br)=NN2c2cccc(S(=O)(=O)O)c2)N1c1nc2ccccc2s1 (configuration not stated)

>  <parameter>
TGI

>  <recordedValue>
> 100 µM

$$$$
>  <compound>
C/C(=N\n1c(N)c(C#N)c(-c2ccc(Cl)cc2)c(C#N)c1=O)c1ccncc1

>  <parameter>
TGI

>  <recordedValue>
> 100 µM

$$$$

----------
Test system: ACHN renal
Test: NCI tumour cell line growth inhibition, 48 h; in the data active means GI50 below about 0.43 µM; inactive means the rest
Outcome codes: y (active), n (inactive)

>  <molecule>
Cc1cc(NC(=O)NC(=O)c2ccccc2N(C)C)ccc1Oc1ncc(Br)cn1

>  <class>
y

$$$$
>  <molecule>
CCN(CC)CCOc1ccc(/C=C2\CC3C4CC=C5C[C@@H](OC(C)=O)CC[C@]5(C)C4CC[C@]3(C)C2=O)cc1OC (stereo partly specified)

>  <class>
n

$$$$
>  <molecule>
C=C(CNCCc1ccc(O)cc1)[C@@H]1CC[C@]2(CO)CC[C@]3(C)[C@H](CC[C@@H]4[C@@]5(C)CCC(N)C(C)(C)[C@@H]5CC[C@]43C)[C@@H]12 (stereo partly specified)

>  <class>
n

$$$$
>  <molecule>
C/C(=N\n1c(N)c(C#N)c(-c2ccc(Cl)cc2)c(C#N)c1=O)c1ccncc1

>  <class>
n

$$$$
>  <molecule>
Cn1cc(CO)c2ccccc21

>  <class>
n

$$$$
>  <molecule>
CCC(=O)c1cc([N+](=O)[O-])c(Br)s1

>  <class>
n

$$$$

----------
Tested on: COLO 205 colon
Assay: NCI tumour cell line growth inhibition, 48 h
Parameter TGI: see the listing below.
parameter: TGI

>  <molecule>
CC1(C)CCC2(C(=O)OC3OC(CO)C(O)C(O)C3O)CCC3(CO)C(=CCC4C5(C)CC(O)C(O)C(C)(C(=O)OC6OC(CO)C(O)C(O)C6O)C5CCC43C)C2C1 (stereo not drawn)

>  <recordedValue>
> 100 µM

$$$$
>  <molecule>
Nc1c(N=Nc2ccc(-c3ccc(N=Nc4c(O)ccc5cc(S(=O)(=O)O)cc(S(=O)(=O)O)c45)cc3)cc2)c(S(=O)(=O)O)cc2cc(S(=O)(=O)O)c(N=Nc3ccccc3)c(O)c12

>  <recordedValue>
> 100 µM

$$$$
>  <molecule>
COc1cc2cccc(N=Cc3c(Br)ccc(OC)c3OC(C)C)c2cc1OC

>  <recordedValue>
> 100 µM

$$$$

----------
Test system: SK-OV-3 ovarian
Assay: NCI tumour cell line growth inhibition, 48 h

>  <compound>
COc1ccc(C=Nc2ccc(-c3nc4ccccc4[nH]3)cc2)cc1OC

>  <TGI>
> 100 µM

$$$$
>  <compound>
CC(=O)c1ccc(NC(=O)CSc2nc(C)nc3c2sc(=S)n3-c2ccccc2)cc1

>  <TGI>
> 3.16 µM

$$$$
>  <compound>
CC1=C(C(=O)CC(=O)C(=O)NC2C3CC4CC(C3)CC2C4)Sc2ccccc2N1 (stereo not given)

>  <TGI>
> 31.6 µM

$$$$
>  <compound>
COC(=O)c1ccc(/C=C2\CCc3ccccc3C2=O)cc1

>  <TGI>
> 100 µM

$$$$
>  <compound>
Cc1ccc(-n2c3c(c4c(CN5CCOCC5)c(O)ccc42)CCc2ccccc2C3=O)cc1

>  <TGI>
> 100 µM

$$$$

----------
Test system: UO-31 renal
Assay: NCI tumour cell line growth inhibition, 48 h
Entries and their GI50 values follow.

>  <compound>
COc1ccc(-c2cc(/C=C/C(=O)c3cc(OC)c(OC)c(OC)c3)[nH]n2)cc1OC

>  <GI50>
1.27 µM

$$$$
>  <compound>
Cc1n(Cc2ccc3ccccc3c2)c(Cl)c(Cl)[n+]1Cc1ccc2ccccc2c1

>  <GI50>
1.71 µM

$$$$
>  <compound>
COc1ccc2c(c1)nc1n2C(c2ccc(F)cc2)SC1 (centres undefined)

>  <GI50>
23.5 µM

$$$$
>  <compound>
NC(N)=N/N=C/c1c(-c2ccc(Cl)c([N+](=O)[O-])c2)nc2n1CCS2

>  <GI50>
26 µM

$$$$

----------
System: SF-295 CNS
Assay: NCI tumour cell line growth inhibition, 48 h
TGI values by entry
parameter: TGI

>  <compound>
CO[P@]1(=O)O[C@@H](c2ccccc2)[C@H](O)[C@@]1(O)c1ccccc1

>  <recordedValue>
> 100 µM

$$$$
>  <compound>
Cc1cc(=O)[nH]c(NNC(C#N)c2ccc([N+](=O)[O-])cc2)n1 (stereo not given)

>  <recordedValue>
> 100 µM

$$$$
>  <compound>
COc1ccc(/C=C(/C(=O)n2cnnn2)c2cc(OC)c(OC)c(OC)c2)cc1

>  <recordedValue>
> 100 µM

$$$$
>  <compound>
Cc1ccc(-n2c3c(c4c(CN5CCOCC5)c(O)ccc42)CCc2ccccc2C3=O)cc1

>  <recordedValue>
> 100 µM

$$$$
>  <compound>
COc1ccc2cc(-c3c(-c4ccncc4)nc(-c4ccc(S(C)=O)cc4C)n3C)ccc2c1 (stereo not given)

>  <recordedValue>
> 25 µM

$$$$

----------
Tested on: EKVX NSCLC
Assay: NCI tumour cell line growth inhibition, 48 h

>  <molecule>
C=C(CNCCc1ccc(O)cc1)[C@@H]1CC[C@]2(CO)CC[C@]3(C)[C@H](CC[C@@H]4[C@@]5(C)CCC(N)C(C)(C)[C@@H]5CC[C@]43C)[C@@H]12 (some centres undefined)

>  <TGI>
3.36 µM

$$$$
>  <molecule>
COC(=O)c1ccc(/C=C2\CCc3ccccc3C2=O)cc1

>  <TGI>
> 100 µM

$$$$
>  <molecule>
Nc1c(N=Nc2ccc(-c3ccc(N=Nc4c(O)ccc5cc(S(=O)(=O)O)cc(S(=O)(=O)O)c45)cc3)cc2)c(S(=O)(=O)O)cc2cc(S(=O)(=O)O)c(N=Nc3ccccc3)c(O)c12

>  <TGI>
> 100 µM

$$$$
>  <molecule>
O=C1OI(C#Cc2ccccc2)c2ccccc21

>  <TGI>
9.67 µM

$$$$
>  <molecule>
Cc1nnc(N=Nc2c(O)[nH]c3ccccc23)n1N

>  <TGI>
> 100 µM

$$$$
>  <molecule>
C/C(=N\Nc1ccccc1)C(CN(C)C)C(c1ccccc1)c1c(O)c2ccccc2oc1=O (centres undefined)

>  <TGI>
> 100 µM

$$$$
>  <molecule>
Cc1cc([N+](=O)[O-])c(S(=O)(=O)c2ccccc2)c([N+](=O)[O-])c1

>  <TGI>
> 72.5 µM

$$$$
>  <molecule>
c1ccc(OCCSCCCCCCCCCCSCCOc2ccccc2)cc1

>  <TGI>
> 100 µM

$$$$
>  <molecule>
O=c1[nH]c2cc(Cl)c(Cl)cc2n2cc3ccccc3c12

>  <TGI>
43.5 µM

$$$$
